Cited source: paper PMC2810230

- ASSAYED SYSTEM: UniProt:Q8I5D5
- Sequence (Q8I5D5 entry or part of it): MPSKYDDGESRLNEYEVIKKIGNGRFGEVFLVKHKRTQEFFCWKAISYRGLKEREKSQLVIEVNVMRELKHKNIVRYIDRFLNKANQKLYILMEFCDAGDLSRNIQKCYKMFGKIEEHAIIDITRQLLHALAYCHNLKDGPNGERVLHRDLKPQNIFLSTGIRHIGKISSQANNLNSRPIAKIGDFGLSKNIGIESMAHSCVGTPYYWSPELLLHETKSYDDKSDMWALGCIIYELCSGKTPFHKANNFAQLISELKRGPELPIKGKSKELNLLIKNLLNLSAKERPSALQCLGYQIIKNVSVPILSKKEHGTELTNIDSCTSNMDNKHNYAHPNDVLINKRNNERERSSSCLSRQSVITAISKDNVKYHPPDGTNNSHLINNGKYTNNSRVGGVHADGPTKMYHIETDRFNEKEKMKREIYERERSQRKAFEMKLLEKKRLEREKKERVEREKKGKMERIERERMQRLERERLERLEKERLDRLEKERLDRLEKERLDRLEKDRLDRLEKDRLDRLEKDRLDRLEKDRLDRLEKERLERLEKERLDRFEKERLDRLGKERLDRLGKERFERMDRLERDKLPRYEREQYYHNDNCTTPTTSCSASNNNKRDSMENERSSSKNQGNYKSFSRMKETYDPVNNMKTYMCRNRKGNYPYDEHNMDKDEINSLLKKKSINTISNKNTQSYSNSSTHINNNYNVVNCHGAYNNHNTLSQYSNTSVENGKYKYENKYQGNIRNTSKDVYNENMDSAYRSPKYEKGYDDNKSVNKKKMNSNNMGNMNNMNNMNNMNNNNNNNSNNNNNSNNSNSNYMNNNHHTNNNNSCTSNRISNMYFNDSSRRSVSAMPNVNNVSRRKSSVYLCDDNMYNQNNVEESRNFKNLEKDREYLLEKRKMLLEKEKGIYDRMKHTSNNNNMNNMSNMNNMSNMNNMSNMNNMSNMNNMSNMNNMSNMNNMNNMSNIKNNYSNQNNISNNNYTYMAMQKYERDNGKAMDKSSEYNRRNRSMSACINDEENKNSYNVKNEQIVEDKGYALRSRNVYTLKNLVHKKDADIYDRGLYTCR
- EXPERIMENT SUMMARY: Pfnek-1 protein kinase assay (33P incorporation in β-casein)
- Type: biochemical
- RECORDED CONDITIONS: GST-Pfnek-1, β-casein substrate, 30 °C, 30 min
pIC50: −log10 of the molar value.
Entries and their measured pIC50 follow.

| COMPOUND | pIC50 |
| --- | --- |
| COC1=C(Br)[C@H](O)[C@@]2(C=C1Br)CC(C(=O)NCCCOc1c(Br)cc(CCNC(=O)C3=NO[C@]4(C=C(Br)C(OC)=C(Br)[C@@H]4O)C3)cc1Br)=NO2 | < 4.30 |
| O=C1Cc2cc(O)c(Br)cc2O1 [Compound 6b, 6-bromo-5-hydroxy-3H-benzofuran-2-one] | < 4.30 |
| COC(=O)Cc1c(O)cc(Br)c(O)c1Br | ~5.74 |
| COC(=O)Cc1cc(O)c(Br)cc1O | 5.00 |
| COC(=O)Cc1cc(Br)c(O)c(Br)c1O | < 4.30 |
| COC(=O)Cc1cc(O)ccc1O [Compound 8, Methyl (2,5-dihydroxyphenyl)acetate] | < 4.30 |
| O=C1Cc2c(cc(Br)c(O)c2Br)O1 | < 4.30 |

The compound listed as COC1=C(Br)[C@H](O)[C@@]2(C=C1Br)CC(C(=O)NCCCOc1c(Br)cc(C(O)CNC(=O)C3=NO[C@]4(C=C(Br)C(OC)=C(Br)[C@@H]4O)C3)cc1Br)=NO2 (some centres unmarked) has a reported pIC50 of < 4.30
